Test: dry Sympatec PSD analysis (particle size distribution)
Assay type: physicochemical
Conditions: dry Sympatec PSD; after isolation / pre-storage sample
RECORDED METRIC: Particle Size, cumulative distribution Q3 X90 (μ)
Express your answer in μ, writing the number without its unit.

CCC(=O)OCC(=O)[C@@]1(OC(=O)CC)[C@@H](C)C[C@H]2[C@@H]3CCC4=CC(=O)C=C[C@]4(C)[C@@]3(Cl)[C@@H](O)C[C@@]21C [Comparative Example 2] ... 8.76
CCC(=O)OCC(=O)[C@@]1(OC(=O)CC)[C@@H](C)C[C@H]2[C@@H]3CCC4=CC(=O)C=C[C@]4(C)[C@@]3(Cl)[C@@H](O)C[C@@]21C [anhydrous BDP, anhydrous beclomethasone diproprionate] ... 2.24
CCC(=O)OCC(=O)[C@@]1(OC(=O)CC)[C@@H](C)C[C@H]2[C@@H]3CCC4=CC(=O)C=C[C@]4(C)[C@@]3(Cl)[C@@H](O)C[C@@]21C [Comparative Example 1] ... 61.27

Q) Note down Particle Size, cumulative distribution Q3 X90 recorded for CCC(=O)OCC(=O)[C@@]1(OC(=O)CC)[C@@H](C)C[C@H]2[C@@H]3CCC4=CC(=O)C=C[C@]4(C)[C@@]3(Cl)[C@@H](O)C[C@@]21C.O [BDP hydrate]
A) 3.17
